Experiment: total protein half-life in vivo (active degradation + dilution); higher = more stable protein
Details: E. coli NCM3722 delta-hslV; growth: N-lim chemostat; doubling time 6 h
measuredQuantity: total protein half-life in vivo (h)
Write down the numeric answer in h and omit the unit.

chainsequence=MKKIAITCALLSSLVASSVWADAASDLKSRLDKVSSFHASFTQKVTDGSGAAVQEGQGDLWVKRPNLFNWHMTQPDESILVSDGKTLWFYNPFVEQATATWLKDATGNTPFMLIARNQSSDWQQYNIKQNGDDFVLTPKASNGNLKQFTINVGRDGTIHQFSAVEQDDQRSSYQLKSQQNGAVDAAKFTFTPPQGVTVDDQRK recordednumber=7.06
chainsequence="MAGINLNKKLWRIPQQGMVRGVCAGIANYFDVPVKLVRILVVLSIFFGLALFTLVAYIILSFALDPMPDNMAFGEQLPSSSELLDEVDRELAASETRLREMERYVTSDTFTLRSRFRQL [P0AFN2]" recordednumber=5.48
chainsequence="MKKLVLSLSLVLAFSSATAAFAAIPQNIRIGTDPTYAPFESKNSQGELVGFDIDLAKELCKRINTQCTFVENPLDALIPSLKAKKIDAIMSSLSITEKRQQEIAFTDKLYAADSRLVVAKNSDIQPTVESLKGKRVGVLQGTTQETFGNEHWAPKGIEIVSYQGQDNIYSDLTAGRIDAAFQDEVAASEGFLKQPVGKDYKFGGPSVKDEKLFGVGTGMGLRKEDNELREALNKAFAEMRADGTYEKLAKKYFDFDVYGG [P0AEU0]" recordednumber=6.1
chainsequence="MDFSLTEEQELLLASIRELITTNFPEEYFRTCDQNGTYPREFMRALADNGISMLGVPEEFGGIPADYVTQMLALMEVSKCGAPAFLITNGQCIHSMRRFGSAEQLRKTAESTLETGDPAYALALTEPGAGSDNNSATTTYTRKNGKVYINGQKTFITGAKEYPYMLVLARDPQPKDPKKAFTLWWVDSSKPGIKINPLHKIGWHMLSTCEVYLDNVEVEESDMVGEEGMGFLNVMYNFEMERLINAARSTGFAECAFEDAARYANQRIAFGKPIGHNQMIQEKLALMAIKIDNMRNMVLKVAWQADQHQSLRTSAALAKLYCARTAMEVIDDAIQIMGGLGYTDEARVSRFWRDVRCERIGGGTDEIMIYVAGRQILKDYQNK [P0A9U8]" recordednumber=1.41

Data request, read-out total protein half-life in vivo, for MPSFDIVSEVDLQEARNAVDNASREVESRFDFRNVEASFELNDASKTIKVLSESDFQVNQLLDILRAKLLKRGIEGSSLDVPENIVHSGKTWFVEAKLKQGIESATQKKIVKMIKDSKLKVQAQIQGDEIRVTGKSRDDLQAVMAMVRGGDLGQPFQFKNFRD [P0A8E7]
5.06

====

Experiment: total protein half-life in vivo (active degradation + dilution); higher = more stable protein
Settings: wild type E. coli NCM3722; growth: C-lim chemostat; doubling time 12 h
measuredQuantity: total protein half-life in vivo (h)
Write down the numeric answer in h and omit the unit.

# annotated cases, reported total protein half-life in vivo shown
chainsequence=MSGLPLISRRRLLTAMALSPLLWQMNTAHAAAIDPNRIVALEWLPVELLLALGIVPYGVADTINYRLWVSEPPLPDSVIDVGLRTEPNLELLTEMKPSFMVWSAGYGPSPEMLARIAPGRGFNFSDGKQPLAMARKSLTEMADLLNLQSAAETHLAQYEDFIRSMKPRFVKRGARPLLLTTLIDPRHMLVFGPNSLFQEILDEYGIPNAWQGETNFWGSTAVSIDRLAAYKDVDVLCFDHDNSKDMDALMATPLWQAMPFVRAGRFQRVPAVWFYGATLSAMHFVRVLDNAIGGKA measuredquantity="total protein half-life in vivo" units=h recordednumber=12.2
chainsequence=MAQRVQLTATVSENQLGQRLDQALAEMFPDYSRSRIKEWILDQRVLVNGKVCDKPKEKVLGGEQVAINAEIEEEARFEPQDIPLDIVYEDEDIIIINKPRDLVVHPGAGNPDGTVLNALLHYYPPIADVPRAGIVHRLDKDTTGLMVVAKTVPAQTRLVESLQRREITREYEAVAIGHMTAGGTVDEPISRHPTKRTHMAVHPMGKPAVTHYRIMEHFRVHTRLRLRLETGRTHQIRVHMAHITHPLVGDPVYGGRPRPPKGASEAFISTLRKFDRQALHATMLRLYHPISGIEMEWHAPIPQDMVELIEVMRADFEEHKDEVDWL measuredquantity="total protein half-life in vivo" units=h recordednumber=9.95
chainsequence=MTPTIELICGHRSIRHFTDEPISEAQREAIINSARATSSSSFLQCSSIIRITDKALREELVTLTGGQKHVAQAAEFWVFCADFNRHLQICPDAQLGLAEQLLLGVVDTAMMAQNALIAAESLGLGGVYIGGLRNNIEAVTKLLKLPQHVLPLFGLCLGWPADNPDLKPRLPASILVHENSYQPLDKGALAQYDEQLAEYYLTRGSNNRRDTWSDHIRRTIIKESRPFILDYLHKQGWATR measuredquantity="total protein half-life in vivo" units=h recordednumber=9.24
chainsequence=MQASQFSAQVLDWYDKYGRKTLPWQIDKTPYKVWLSEVMLQQTQVATVIPYFERFMARFPTVTDLANAPLDEVLHLWTGLGYYARARNLHKAAQQVATLHGGKFPETFEEVAALPGVGRSTAGAILSLSLGKHFPILDGNVKRVLARCYAVSGWPGKKEVENKLWSLSEQVTPAVGVERFNQAMMDLGAMICTRSKPKCSLCPLQNGCIAAANNSWALYPGKKPKQTLPERTGYFLLLQHEDEVLLAQRPPSGLWGGLYCFPQFADEESLRQWLAQRQIAADNLTQLTAFRHTFSHFHLDIVPMWLPVSSFTGCMDEGNALWYNLAQPPSVGLAAPVERLLQQLRTGAPV measuredquantity="total protein half-life in vivo" units=h recordednumber=7.51

Switching to the query record.
Data request, read-out total protein half-life in vivo, for MKKKTTLSEEDQALFRQLMAGTRKIKQDTIVHRPQRKKISEVPVKRLIQEQADASHYFSDEFQPLLNTEGPVKYVRPDVSHFEAKKLRRGDYSPELFLDLHGLTQLQAKQELGALIAACRREHVFCACVMHGHGKHILKQQTPLWLAQHPHVMAFHQAPKEYGGDAALLVLIEVEEWLPPELP [P0A8B2]
5.34

====

Experiment: total protein half-life in vivo (active degradation + dilution); higher = more stable protein
Details: E. coli NCM3722 delta-lon; growth: N-lim chemostat; doubling time 6 h
measuredQuantity: total protein half-life in vivo
Returns: string containing the numeric result and its unit.

# annotated cases, reported total protein half-life in vivo shown
chainsequence=MYERYAGLIFDMDGTILDTEPTHRKAWREVLGHYGLQYDIQAMIALNGSPTWRIAQAIIELNQADLDPHALAREKTEAVRSMLLDSVEPLPLVDVVKSWHGRRPMAVGTGSESAIAEALLAHLGLRHYFDAVVAADHVKHHKPAPDTFLLCAQRMGVQPTQCVVFEDADFGIQAARAAGMDAVDVRLL result="4.41 h"
chainsequence=MTIKNKMLLGALLLVTSAAWAAPATAGSTNTSGISKYELSSFIADFKHFKPGDTVPEMYRTDEYNIKQWQLRNLPAPDAGTHWTYMGGAYVLISDTDGKIIKAYDGEIFYHR result="5.84 h"
chainsequence=MSNKMTGLVKWFNADKGFGFISPVDGSKDVFVHFSAIQNDNYRTLFEGQKVTFSIESGAKGPAAANVIITD result="0.617 h"
chainsequence=MPALDLIRPSVTAMRVIASVNADFARELKLPPHIRSLGLISADSDDVTYIAADEATKQAMVEVVYGRSLYAGAAHGPSPTAGEVLIMLGGPNPAEVRAGLDAMIAHIENGAAFQWANDAQDTAFLAHVVSRTGSYLSSTAGITLGDPMAYLVAPPLEATYGIDAALKSADVQLATYVPPPSETNYSAAFLTGSQAACKAACNAFTDAVLEIARNPIQRA result="4.68 h"

Switching to the query record.
Data request, read-out total protein half-life in vivo, for `MRLEFSIYRYNPDVDDAPRMQDYTLEADEGRDMMLLDALIQLKEKDPSLSFRRSCREGVCGSDGLNMNGKNGLACITPISALNQPGKKIVIRPLPGLPVIRDLVVDMGQFYAQYEKIKPYLLNNGQNPPAREHLQMPEQREKLDGLYECILCACCSTSCPSFWWNPDKFIGPAGLLAAYRFLIDSRDTETDSRLDGLSDAFSVFRCHSIMNCVSVCPKGLNPTRAIGHIKSMLLQRNA`
5.16 h

====

Experiment: total protein half-life in vivo (active degradation + dilution); higher = more stable protein
Details: wild type E. coli NCM3722; growth: N-lim chemostat; doubling time 12 h
total protein half-life in vivo reference

chainsequence=MTTLTARPEAITFDPQQSALIVVDMQNAYATPGGYLDLAGFDVSTTRPVIANIQTAVTAARAAGMLIIWFQNGWDEQYVEAGGPGSPNFHKSNALKTMRKQPQLQGKLLAKGSWDYQLVDELVPQPGDIVLPKPRYSGFFNTPLDSILRSRGIRHLVFTGIATNVCVESTLRDGFFLEYFGVVLEDATHQAGPKFAQKAALFNIETFFGWVSDVETFCDALSPTSFAHIA result="0.812 h"
chainsequence=MVAPIPAKRGRKPAVATAPATGQVQSLTRGLKLLEWIAESNGSVALTELAQQAGLPNSTTHRLLTTMQQQGFVRQVGELGHWAIGAHAFMVGSSFLQSRNLLAIVHPILRNLMEESGETVNMAVLDQSDHEAIIIDQVQCTHLMRMSAPIGGKLPMHASGAGKAFLAQLSEEQVTKLLHRKGLHAYTHATLVSPVHLKEDLAQTRKRGYSFDDEEHALGLRCLAACIFDEHREPFAAISISGPISRITDDRVTEFGAMVIKAAKEVTLAYGGMR result="9.96 h"
chainsequence=MNYRIIPVTAFSQNCSLIWCEQTRLAALVDPGGDAEKIKQEVDDSGLTLMQILLTHGHLDHVGAAAELAQHYGVPVFGPEKEDEFWLQGLPAQSRMFGLEECQPLTPDRWLNEGDTISIGNVTLQVLHCPGHTPGHVVFFDDRAKLLISGDVIFKGGVGRSDFPRGDHNQLISSIKDKLLPLGDDVIFIPGHGPLSTLGYERLHNPFLQDEMPVW result="4.36 h"
chainsequence="MAAINTKVKKAVIPVAGLGTRMLPATKAIPKEMLPLVDKPLIQYVVNECIAAGITEIVLVTHSSKNSIENHFDTSFELEAMLEKRVKRQLLDEVQSICPPHVTIMQVRQGLAKGLGHAVLCAHPVVGDEPVAVILPDVILDEYESDLSQDNLAEMIRRFDETGHSQIMVEPVADVTAYGVVDCKGVELAPGESVPMVGVVEKPKADVAPSNLAIVGRYVLSADIWPLLAKTPPGAGDEIQLTDAIDMLIEKETVEAYHMKGKSHDCGNKLGYMQAFVEYGIRHNTLGTEFKAWLEEEMGIKK [P0AEP3]" result="7.63 h"
chainsequence="MKLFYKPGACSLASHITLRESGKDFTLVSVDLMKKRLENGDDYFAVNPKGQVPALLLDDGTLLTEGVAIMQYLADSVPDRQLLAPVNSISRYKTIEWLNYIATELHKGFTPLFRPDTPEEYKPTVRAQLEKKLQYVNEALKDEHWICGQRFTIADAYLFTVLRWAYAVKLNLEGLEHIAAFMQRMAERPEVQDALSAEGLK [P0A9D2]" result="9.9 h"

Data request, read-out total protein half-life in vivo, for MTNPQFAGHPFGTTVTAETLRNTFAPLTQWEDKYRQLIMLGKQLPALPDELKAQAKEIAGCENRVWLGYTVAENGKMHFFGDSEGRIVRGLLAVLLTAVEGKTAAELQAQSPLALFDELGLRAQLSASRSQGLNALSEAIIAATKQV [P0AGF2]
8.14 h

Entry `MLKLTDITWLYHHLPMRFSLTVERGEQVAILGPSGAGKSTLLNLIAGFLTPASGSLTIDGVDHTTMPPSRRPVSMLFQENNLFSHLTVAQNIGLGLNPGLKLNAVQQGKMHAIARQMGIDNLMARLPGELSGGQRQRVALARCLVREQPILLLDEPFSALDPALRQEMLTLVSTSCQQQKMTLLMVSHSVEDAARIATRSVVVADGRIAWQGMTNELLSGKASASALLGITG` please
12.6 h

Entry `MRYPVDVYTGKIQAYPEGKPSAIAKIQVDGELMLTELGLEGDEQAEKKVHGGPDRALCHYPREHYLYWAREFPEQAELFVAPAFGENLSTDGLTESNVYMGDIFRWGEALIQVSQPRSPCYKLNYHFDISDIAQLMQNTGKVGWLYSVIAPGKVSADAPLELVSRVSDVTVQEAAAIAWHMPFDDDQYHRLLSAAGLSKSWTRTMQKRRLSGKIEDFSRRLWGK` please
7.96 h
